Assay metric: melting point

Examples with answers:
Cc1nc2c(cc1CO)CCCC2=Cc1ccccc1	102 to 103 °C
CCc1cc(OCc2ccc(-c3ccccc3C#N)cc2)c2c(n1)CCCC2	147 to 148 °C
COc1ccc2c(c1)N(CCCN1CCC(CCO)CC1)c1cccc(S(C)(=O)=O)c1S2	117 to 118 °C

Please fill in: melting point reported for CC(=O)C1C(=O)N(C(=O)Nc2ccc(F)cc2)c2ccccc21 (stereo unspecified) = 181 to 182 °C

// `CC(=O)NC(=Cc1c[nH]c2cc(C)ccc12)C(=O)O` : melting point value = 204 to 206 °C

Entry under test: CC(=O)NS(=O)(=O)c1cccc(NC(=O)NC2N=C(c3ccccc3F)c3ccccc3N(CC(=O)N3CC4CCC(CC4)C3)C2=O)c1 (racemic) . Its melting point was 193 to 203 °C

---

Measured melting point of individual entries

Recorded melting point, per entry:
COc1cc(C(=O)O)ccc1Cc1cccc2ccc(CCCCC(=O)N(C)C)cc12	125 to 127 °C
O=C(NC(=NCCSCc1cccs1)NCCCc1c[nH]cn1)c1ccccc1	128 to 129 °C
CNC(=O)N1N=C(c2ccc([N+](=O)[O-])cc2)c2cc(Cl)ccc2CC1C (centres undefined)	190 to 192 °C
O=C(CCC1CCN(Cc2ccccc2)CC1)c1ccc(Nc2ncnc3c2CCC3O)cc1 (centres undefined)	189 to 190 °C
CCCCOC(=O)C(Cl)=Cc1cc(-n2c(=O)cc(C(F)(F)F)n(C)c2=O)ccc1Cl	109 to 110 °C
C=CCOc1ccc2cc(O)ccc2c1	92 to 93 °C
Cc1cc(N2C(=O)N(CCCCCN3C(=O)N(c4ccc(C#N)c(C)c4)C(=O)C3(C)C)C(C)(C)C2=O)ccc1C#N	148 to 149 °C
OCc1cnc(C(O)c2cc(F)ccc2F)c(F)c1 (centres undefined)	94 to 96 °C

Entry `O=S(=O)(c1ccccc1)n1c(Cc2cc3ccccc3n2S(=O)(=O)c2ccccc2)cc2ccccc21` ; melting point = 144 to 145 °C

get_value(item= `CCCCCCCCCCCCCCCCc1cc(OC)nc(N(C)C)n1` , readout=melting point) returns 49 to 50 °C

---

Assay metric: melting point

O=C(O)C1CCCc2[nH]c3ccccc3c21 (centres undefined)	163 to 165 °C
CCOC(=O)Cc1cn(C)c2cc(C3CC3)nn2c1=O	147 to 150 °C
CCOC(=O)c1c(O)c2c(CC)nc(CC)cc2[nH]c1=O	159 to 160 °C
COc1ccc(S(=O)(=O)N(CC(C)C)CC(O)C(Cc2ccccc2)NC(=O)C(C)CS(C)(=O)=O)cc1OC (centres undefined)	130 to 133 °C
CCNC(=O)n1nc(Oc2c(Cl)cc(C(F)(F)F)cc2Cl)c(CC)c1C	120 to 123 °C

Briefly, melting point measured for NC(=O)c1nccn1C1Cc2cc(Cl)ccc2C1=O (centres undefined) : 240 °C

# melting point (molecule: CCCCN(C(=O)N[C@@H](CC(=O)O)c1ccc2c(c1)OCO2)C1CC(=O)N(Cc2ccccc2)C1=O (some centres undefined) ) is 80 to 85 °C

melting point for `OCCCN1CCN(C2=Nc3ccccc3Cn3c2cc2ccccc23)CC1` is 174 to 175 °C

So, `CCCCCCCN(CCCCCSc1nc(-c2ccccc2)c(-c2ccccc2)[nH]1)C(=O)NC` ? Its melting point was 93 to 96 °C

Lab note: measured melting point of `COc1cccc(-c2cn3cc(-c4cccc(CO)c4F)ccc3n2)c1` was 143 to 144 °C

Data point: `O=c1cc(N2CCOCC2)oc2c(-c3ccc(O)c(-c4ccccc4)c3)cccc12` ; melting point = 243 to 247 °C

---

Documented melting point across a set of molecules
# output: bare number, implied unit °C

The following molecules have reported results that may help.
CCCCC(=NNC=O)c1ccncc1	143
COc1ccc(C(C)N(C)CCCOc2ccc(S(=O)(=O)c3ncc(-c4ccccc4)n3-c3ccccc3)cc2)cc1OC (configuration not stated)	162
O=C(O)c1ccc(CNCc2cc(Br)ccc2OCc2ccccc2)cc1	209
COC(=O)c1nc2cc(Cn3ccnc3)ccc2[nH]1	228
O=S(=O)(N[C@H]1CC[C@H](CCN2CCC(c3cccc4c3CCO4)CC2)CC1)c1ccccc1	130

Lab note: measured melting point of CCN(CCCCc1c[nH]c2ccc(F)cc12)C1COc2c(F)ccc(C(N)=O)c2C1 (configuration not stated) was 110

Documented melting point of `Cc1c(C(=O)Nc2ccc(N3CCC(N4CCOCC4)CC3)c(C#N)c2)cnn1-c1ccc(F)c(Cl)c1` : 266

---

Assay metric: melting point

Guide cases for melting point, answers given:
COc1ccc(C(=O)N(C)C2N(C)C(c3ccc(F)cc3)=NC2(C(F)(F)F)C(F)(F)F)cc1 (centres undefined)	136 to 137 °C
C=COCCOc1ccc(C2(c3ccc(OCCOC=C)cc3)CCC(c3ccc(OCCOC=C)cc3)(c3ccc(OCCOC=C)cc3)CC2)cc1	138 to 139 °C
O=S(=O)(O)c1ccc2nc(NC3=NCCN3)[nH]c2c1	> 360 °C
O=C(Nc1cc(-c2nc(-c3ccco3)no2)ccc1Cl)Oc1ccccc1	177 to 178 °C
COc1cc2c(cc1O)CCCC(=O)N2Cc1cc(OC)c(OC)c(OC)c1	170 to 171 °C

// `CC(=O)COc1cc(=O)oc2ccccc12` : melting point value = 163 to 165 °C

get_value(item= `CC1(C)CC(=O)C(SCC2CCCCC2)=C(O)C1` , readout=melting point) returns 67.5 to 69.5 °C

Reported melting point ( `CCCc1c(CSc2nnc(NC(=O)CC(=O)OCc3ccc(OC)cc3)s2)ccc(C(C)=O)c1O` ) = 162 to 166 °C

get_value(item= CCOC(=O)N1c2cc(OC)c(OC)cc2C(=O)CC1C (centres undefined) , readout=melting point) returns 94 to 95 °C

---

Documented melting point across a set of compounds

CC1(C)CCCC(NC(=O)OC(C)(C)C)C(=O)N1 (configuration not stated)	118 to 120 °C
Cc1cc(N(C)C)cc(C)c1NC(NCCCCCCCc1ccc(C(C)(C)C)cc1)=C1C(=O)COC1=O	144 to 147 °C
O=C(O)CCc1cc2cc(Cl)ccc2n1S(=O)(=O)c1cccc2cccnc12	215 to 222 °C
O=C(NNC(=O)c1ccnc2[nH]ccc12)OCc1ccccc1	203 to 204 °C
O=c1ccc(CO)c[nH]1	130 °C

Kindly note the recorded melting point for CC(=O)N1CCOc2ccc(C3=NNC(=O)CC3C)cc21 (configuration not stated) , which is 186 °C

Entry `CC(C)Oc1ccc(Nc2ccc(N=C=O)cc2C(F)(F)F)cc1C(F)(F)F` ; melting point = 102 to 105 °C

So, `CCCCNC(=O)Oc1cccc(NC(=O)C=C(CCC)OC)c1` ? Its melting point was 150 °C

// recorded melting point for `CC12CC3(C)CC(c4ccc(O)cc4)(C1)CC(c1ccc(O)cc1)(C2)C3` : 222 to 224 °C

According to the records, this compound `CCCCc1nc2c(N)nc(C)c(C)c2n1CC(C)(C)NC(=O)c1ccccc1` displays melting point of 150 to 152 °C

So, `CCCCCCCc1ccc(-c2nc(-c3ccccc3Cl)nn2C)cc1` ? Its melting point was 64 to 67 °C

Given item `CCc1ncnc(O)c1F` , the value recorded as its melting point is 112 to 114 °C

---

Assay metric: melting point

// below: answered compounds
Clc1cc(N2CCOCC2)ccc1Nc1ncc2c(Cl)cc(-c3ccccc3)n2n1	242 to 244 °C
Cc1ccccc1CCNC(=O)c1ccc(F)cc1	82 to 83 °C
CCCCOc1ccc(CCCCCCCCC(=O)O)cc1	45 to 48 °C
CC(CCCc1ccccc1)Oc1cc(O)c2c(c1)CC(C)(C)CC2CC(N)=O (stereo not given)	67 to 72 °C

Now for another entry.
Per the records, this compound ( CC(C)Cn1nnc2cc3c(=O)n(C(C)Cn4ncnn4)nnc3cc2c1=O (stereo not given) ) has melting point equal to 132 to 134 °C

---

Measured melting point, listed per entry for reference.

Here's what some known entries look like.
CN(C)C1CC2=CN(S(=O)(=O)c3ccccc3)C=C3C=CC(=O)CC1=C32 (stereo not drawn)	114 to 116 °C
CN(C)C1CCN(c2nc(N3CCOCC3)c3ncnc(NCCCc4ccccc4)c3n2)CC1	82 to 84 °C
Cc1ccccc1N1CCN(CCn2c(=O)[nH]c3ccsc3c2=O)CC1	212 to 214 °C
c1ccc(OCC2CN(Cc3nc4ccccc4[nH]3)CCO2)cc1 (racemic)	171 to 172 °C
CC(C)c1ccc(Nc2nc(N)nc3c2-c2ccccc2C3)cc1	178 to 180 °C
CCOC(=O)NC(Cc1ccccc1)c1ccccc1 (stereo not drawn)	74 to 75 °C

Data point: `O=C(c1ccco1)c1cnn2c(-c3cccc(N4CCCC4=O)c3)ccnc12` ; melting point = 210 to 211 °C

Per the record, CCCCCC(CC(=O)Nc1cc(C(=O)NC(=O)C(C)(C)C)ccc1C(C)(C)C)c1ccc(OC)cc1OC (stereo not drawn) has melting point of 170 to 172 °C

compound `CCCNC(=O)C1(CCCCP(=O)(c2ccccc2)c2ccccc2)c2ccccc2-c2ccccc21` , melting point observed: 163 to 165 °C

Measured melting point, CCOC(=O)[C@H](Cc1ccc(C(F)(F)F)cc1)[C@@H](O)c1ccncc1 (racemic) : 78 to 80 °C

Memo: `Cn1nnnc1-c1cccc(Oc2cccc(C(F)(F)F)c2)n1` , reported melting point: 92 to 94 °C

Entry O=c1c2ncn(C3OC(COC(c4ccccc4)(c4ccccc4)c4ccccc4)C(O)C3O)c2ncn1Cc1ccccc1 (stereo not drawn) — recorded melting point = 208 to 209 °C

# compound `O=C(O)CNc1ccco1` ; its melting point = 195 to 199 °C
